# System: Escherichia coli
# assay_protocol: Antimicrobial activity against Escherichia coli ATCC 35218 assessed as growth inhibition after 18-24 hr by broth double microdilution method
# Assay type: functional
Activity calls are given as the source filed them. The calls are words filed in the database; no cut-off is given here.
assay_readout: MIC

Study these solved cases before continuing.
Cc1nn(CC(=O)NNC(=S)Nc2ccccc2)c(=O)n1/N=C/c1ccncc1 ... inactive
Cc1n[nH]c(=O)n1CCCn1ccnc1 ... inactive
Cc1nn(CC(=O)NN)c(=O)n1CCCn1ccnc1 ... 125 µg/mL
CCOC(=O)Cn1nc(C)n(CCCn2ccnc2)c1=O ... inactive
Cc1nn(CN2CCOCC2)c(=O)n1CCCn1ccnc1 ... 0.97 µg/mL

Measured MIC of Cc1nn(Cc2nnc(S)n2-c2ccccc2)c(=O)n1/N=C/c1ccncc1 : inactive
